Quick reference: MIC of the listed items.
System: Staphylococcus aureus UC 1128
Assay: serial dilution liquid medium MIC, Staphylococcus aureus UC 1128 pen-resistant
Format: cell-based
Conditions: UC1128; Staphylococcus aureus UC 1128 pen-resistant; 24 hours at 37° C.; read-out: minimum inhibiting concentration (MIC)
Method: The method was a serial dilution of liquid medium test wherein a series of tubes were prepared containing the same amount of sterile nutritive medium and increasing amounts of the test product was distributed in each tube. […] The degree of inhibition was determined by transillumination to determine the minimum inhibiting concentration (MIC) express in μg/ml and the results are reported in the following Tables.

[
  {
    "Compound": "CC[C@H]1OC(=O)[C@H](C)[C@@H](O[C@H]2C[C@@](C)(OC)[C@@H](O)[C@H](C)O2)[C@H](C)[C@@H](O[C@@H]2O[C@H](C)C[C@H](N(C)C)[C@H]2O)[C@](C)(O)C[C@@H](C)C(=NOCCC#N)[C@H](C)[C@@H](O)[C@]1(C)O [Example 14]",
    "Unit Tag": "µg/mL",
    "MIC": 0.4
  },
  {
    "Compound": "CC[C@H]1OC(=O)[C@H](C)[C@@H](O[C@H]2C[C@@](C)(OC)[C@@H](O)[C@H](C)O2)[C@H](C)[C@@H](O[C@@H]2O[C@H](C)C[C@H](N(C)C)[C@H]2O)[C@](C)(O)C[C@@H](C)C(=NOCSc2ccccc2)[C@H](C)[C@@H](O)[C@]1(C)O [Example 28]",
    "Unit Tag": "µg/mL",
    "MIC": 0.6
  },
  {
    "Compound": "CC[C@H]1OC(=O)[C@H](C)[C@@H](O[C@H]2C[C@@](C)(OC)[C@@H](O)[C@H](C)O2)[C@H](C)[C@@H](O[C@@H]2O[C@H](C)C[C@H](N(C)C)[C@H]2O)[C@](C)(O)C[C@@H](C)C(=NOCCN2CCCC2)[C@H](C)[C@@H](O)[C@]1(C)O [Example 32]",
    "Unit Tag": "µg/mL",
    "MIC": 1
  },
  {
    "Compound": "CCOCCOCON=C1[C@H](C)C[C@@](C)(O)[C@H](O[C@@H]2O[C@H](C)C[C@H](N(C)C)[C@H]2O)[C@@H](C)[C@H](O[C@H]2C[C@@](C)(OC)[C@@H](O)[C@H](C)O2)[C@@H](C)C(=O)O[C@H](CC)[C@@](C)(O)[C@H](O)[C@H]1C [Example 4]",
    "Unit Tag": "µg/mL",
    "MIC": 3
  }
]

----------
Measured MIC (Staphylococcus aureus 1061)
Property Measured: MIC (µg/mL)

[
  {
    "Structure As Smiles": "CC[C@H]1OC(=O)[C@H](C)[C@@H](O[C@H]2C[C@@](C)(OC)[C@@H](O)[C@H](C)O2)[C@H](C)[C@@H](O[C@@H]2O[C@H](C)C[C@H](N(C)C)[C@H]2O)[C@](C)(O)C[C@@H](C)C(=NOCCN2CCCC2)[C@H](C)[C@@H](O)[C@]1(C)O",
    "Unit Tag": "µg/mL",
    "Test Value": 0.4
  },
  {
    "Structure As Smiles": "CC[C@H]1OC(=O)[C@H](C)[C@@H](O[C@H]2C[C@@](C)(OC)[C@@H](O)[C@H](C)O2)[C@H](C)[C@@H](O[C@@H]2O[C@H](C)C[C@H](N(C)C)[C@H]2O)[C@](C)(O)C[C@@H](C)C(=NOCOCCN(CC)CC)[C@H](C)[C@@H](O)[C@]1(C)O",
    "Unit Tag": "µg/mL",
    "Test Value": 0.4
  }
]

----------
System: Streptococcus pyogenes A 561

[
  {
    "Structure As Smiles": "CC[C@H]1OC(=O)[C@H](C)[C@@H](O[C@H]2C[C@@](C)(OC)[C@@H](O)[C@H](C)O2)[C@H](C)[C@@H](O[C@@H]2O[C@H](C)C[C@H](N(C)C)[C@H]2O)[C@](C)(O)C[C@@H](C)C(=NOCCN2CCN(C)CC2)[C@H](C)[C@@H](O)[C@]1(C)O",
    "Unit Tag": "µg/mL",
    "Relation Sign": "≤",
    "MIC": 0.01
  },
  {
    "Structure As Smiles": "CCOCCOCON=C1[C@H](C)C[C@@](C)(O)[C@H](O[C@@H]2O[C@H](C)C[C@H](N(C)C)[C@H]2O)[C@@H](C)[C@H](O[C@H]2C[C@@](C)(OC)[C@@H](O)[C@H](C)O2)[C@@H](C)C(=O)O[C@H](CC)[C@@](C)(O)[C@H](O)[C@H]1C",
    "Unit Tag": "µg/mL",
    "Relation Sign": "=",
    "MIC": 0.05
  },
  {
    "Structure As Smiles": "CC[C@H]1OC(=O)[C@H](C)[C@@H](O[C@H]2C[C@@](C)(OC)[C@@H](O)[C@H](C)O2)[C@H](C)[C@@H](O[C@@H]2O[C@H](C)C[C@H](N(C)C)[C@H]2O)[C@](C)(O)C[C@@H](C)C(=NOCCN(C)C)[C@H](C)[C@@H](O)[C@]1(C)O",
    "Unit Tag": "µg/mL",
    "Relation Sign": "≤",
    "MIC": 0.02
  },
  {
    "Structure As Smiles": "CC[C@H]1OC(=O)[C@H](C)[C@@H](O[C@H]2C[C@@](C)(OC)[C@@H](O)[C@H](C)O2)[C@H](C)[C@@H](O[C@@H]2O[C@H](C)C[C@H](N(C)C)[C@H]2O)[C@](C)(O)C[C@@H](C)C(=NOCCOCCO)[C@H](C)[C@@H](O)[C@]1(C)O",
    "Unit Tag": "µg/mL",
    "Relation Sign": "=",
    "MIC": 0.05
  }
]

----------
System: Staphylococcus aureus UC 1128
Test: serial dilution liquid medium MIC, Staphylococcus aureus UC 1128 pen-resistant
Type: cell-based
Details: UC1128; Staphylococcus aureus UC 1128 pen-resistant; 24 hours at 37° C.; read-out: minimum inhibiting concentration (MIC)
Property Measured: MIC (µg/mL)

[
  {
    "Compound": "CC[C@H]1OC(=O)[C@H](C)[C@@H](O[C@H]2C[C@@](C)(OC)[C@@H](O)[C@H](C)O2)[C@H](C)[C@@H](O[C@@H]2O[C@H](C)C[C@H](N(C)C)[C@H]2O)[C@](C)(O)C[C@@H](C)C(=NOCC2OCCO2)[C@H](C)[C@@H](O)[C@]1(C)O [Example 30]",
    "Property Measured": "MIC",
    "Test Value": 0.6
  },
  {
    "Compound": "CC[C@H]1OC(=O)[C@H](C)[C@@H](O[C@H]2C[C@@](C)(OC)[C@@H](O)[C@H](C)O2)[C@H](C)[C@@H](O[C@@H]2O[C@H](C)C[C@H](N(C)C)[C@H]2O)[C@](C)(O)C[C@@H](C)C(=NOCCOCCO)[C@H](C)[C@@H](O)[C@]1(C)O [Example 17]",
    "Property Measured": "MIC",
    "Test Value": 0.6
  },
  {
    "Compound": "CC[C@H]1OC(=O)[C@H](C)[C@@H](O[C@H]2C[C@@](C)(OC)[C@@H](O)[C@H](C)O2)[C@H](C)[C@@H](O[C@@H]2O[C@H](C)C[C@H](N(C)C)[C@H]2O)[C@](C)(O)C[C@@H](C)C(=NOCOCCN(CC)CC)[C@H](C)[C@@H](O)[C@]1(C)O [Example 23]",
    "Property Measured": "MIC",
    "Test Value": 1
  },
  {
    "Compound": "CCOCON=C1[C@H](C)C[C@@](C)(O)[C@H](O[C@@H]2O[C@H](C)C[C@H](N(C)C)[C@H]2O)[C@@H](C)[C@H](O[C@H]2C[C@@](C)(OC)[C@@H](O)[C@H](C)O2)[C@@H](C)C(=O)O[C@H](CC)[C@@](C)(O)[C@H](O)[C@H]1C [Example 20]",
    "Property Measured": "MIC",
    "Test Value": 0.6
  },
  {
    "Compound": "CC[C@H]1OC(=O)[C@H](C)[C@@H](O[C@H]2C[C@@](C)(OC)[C@@H](O)[C@H](C)O2)[C@H](C)[C@@H](O[C@@H]2O[C@H](C)C[C@H](N(C)C)[C@H]2O)[C@](C)(O)C[C@@H](C)C(=NOC(C)CN(C)C)[C@H](C)[C@@H](O)[C@]1(C)O (stereo partly shown) [Example 36]",
    "Property Measured": "MIC",
    "Test Value": 0.5
  },
  {
    "Compound": "CC[C@H]1OC(=O)[C@H](C)[C@@H](O[C@H]2C[C@@](C)(OC)[C@@H](O)[C@H](C)O2)[C@H](C)[C@@H](O[C@@H]2O[C@H](C)C[C@H](N(C)C)[C@H]2O)[C@](C)(O)C[C@@H](C)C(=NOCCNC(C)C)[C@H](C)[C@@H](O)[C@]1(C)O [Example 39]",
    "Property Measured": "MIC",
    "Test Value": 0.6
  },
  {
    "Compound": "CC[C@H]1OC(=O)[C@H](C)[C@@H](O[C@H]2C[C@@](C)(OC)[C@@H](O)[C@H](C)O2)[C@H](C)[C@@H](O[C@@H]2O[C@H](C)C[C@H](N(C)C)[C@H]2O)[C@](C)(O)C[C@@H](C)C(=NOCOCc2ccccc2)[C@H](C)[C@@H](O)[C@]1(C)O [Example 7]",
    "Property Measured": "MIC",
    "Test Value": 1
  }
]

These data points were gathered from patent US4349545A.
